Collected growth values appear next to each entry.
test system: UACC-62 melanoma; assay: NCI-60 one-dose screen, 48 h (100 = growth as untreated, 0 = no growth, -100 = all killed); settings: 10 µM unless noted
The panel holds about 83,000 compounds, 20% with a hit somewhere; the sample as a whole holds those more often.
A number alone suffices; assume %.

Examples with answers:
*Q* For the compound COc1cccc2cc(-c3cc4ccccc4[nH]3)/c(=N\NC(=O)c3ccc(Cl)cc3)oc12 , give its reported growth.
*A* 16.1

*Q* State its growth: Nc1ccccc1NC(=O)c1ccc(NC(=O)C/C=C/c2cccnc2)cc1
*A* 15

*Q* Supply growth value. Item: C#CCC#CCN1CCC[C@H]1C(=O)NCC(=O)OC
*A* 104

*Q* Item COc1cc(OC)cc(C(=O)Nc2cccc(C#Cc3cccc4[nH]nc(N)c34)c2)c1 : provide growth
*A* 23.1

Now turn to the next compound.
*Q* # return recorded growth for input O=C(CSc1nc2ccccc2c(=O)n1-c1ccccc1)Nc1ccc(-c2nc3ccc([N+](=O)[O-])cc3[nH]2)cc1
*A* 51.9

###

tested on: A549/ATCC NSCLC; test: NCI-60 one-dose screen, 48 h; conditions: 10 µM unless noted
This is part of a sample that, as a whole, favours compounds with a hit. Of some 83,000 tested, about 20% had one in any assay. Activity calls are given as the source filed them. The calls were made as follows: active = growth percent below 10; inactive = the rest.
# valid calls are active, inactive; nothing else

*Q* Write down the call the test reported for this compound. Item: CC(C)(C)c1ccc(CC(=O)Nc2sc3c(c2C(N)=O)CCC(=O)C3)cc1
*A* inactive

*Q* Tell me the assay call for C=C(C)[C@@H]1CC[C@]2(COC)CC[C@]3(C)[C@H](CC[C@@H]4[C@@]5(C)CCCNC(C)(C)[C@@H]5CC[C@]43C)[C@@H]12 please.
*A* inactive

*Q* Lab log entry: COc1ccc2c(c1)c(-c1cc(N)n3nc(-c4cn(C)c5ccc(OC)cc45)cc3n1)cn2C — outcome as called in the assay?
*A* inactive

*Q* Look up the recorded call for O=C(CCn1cc[n+](CC(=O)c2ccc(-c3ccccc3)cc2)c1)Nc1cccc2cccnc12 in this test.
*A* inactive

*Q* Outcome? COc1cc(-c2nnc(SCc3ccc(O)c4ncccc34)n2-c2ccccc2)cc(OC)c1OC
*A* active

*Q* So what was the verdict on CC1(C)CC[C@]2(C(=O)N3CCOCC3)CC[C@]3(C)C(=CC[C@@H]4[C@@]5(C)C/C(=C/c6ccco6)C(=O)C(C)(C)[C@@H]5CC[C@]43C)[C@@H]2C1 in this test?
*A* inactive

*Q* Record lookup: outcome of this test for O=C(NNc1nc2cc(F)cc(F)c2n2cccc12)c1cnccn1 ?
*A* inactive

*Q* Per the assay record, what outcome was assigned to CCn1c2ccccc2c2cc(-n3nncc3-c3ccccc3)ccc21 ?
*A* inactive

###

Tested on: HCC-2998 colon
Experiment: NCI-60 one-dose screen, 48 h
Conditions: 10 µM unless noted
Protocol: Growth inhibition of the HCC-2998 human tumor cell line is measured as a screen for anti-cancer activity. Cells are grown in 96 well plates and exposed to the test compound for 48 hours. Compounds are tested at a single concentration, which is 10^-5 M for most compounds. The reported endpoint is percent growth (GI% or GIPRCNT), where numbers from 0 - 100% represent growth inhibition, and numbers from -100% - 0 represent cell death. For example, a value of 40 represents 60% growth inhibition. […]
Compounds without any hit were thinned out: in the full panel of roughly 83,000, 20% have a hit. Active and inactive are the calls of the source. How the source made its calls: active means growth percent below 10; inactive means the rest.
Valid outcomes are listed here; reply with one: active, inactive

Previously resolved entries follow.
*Q* Kindly provide the recorded test outcome for the following compound: Clc1cccc(/C=N/Nc2nc(N/N=C/c3cccc(Cl)c3Cl)nc(N3CCCCC3)n2)c1Cl
*A* inactive

*Q* How did this test come out for Nc1nc(Nc2ccccc2SSc2ccccc2Nc2nc(N)nc(-c3cccc(Br)c3)n2)nc(-c2cccc(Br)c2)n1 ?
*A* inactive

*Q* I'd appreciate the recorded outcome for Nc1nc(-c2cccc([N+](=O)[O-])c2)c(N=Nc2ccccc2)s1 from this test.
*A* inactive

Others:
*Q* Returns: the outcome recorded for CS(=O)(=O)Nc1cc(-c2ccc3ncc(C#N)c(Nc4cccc(Cl)c4F)c3c2)cnc1Cl in this assay.
*A* active

*Q* Kindly provide the recorded test outcome for the following compound: O=C(NCCn1ccnc1)c1ccc(-c2nc3ccc4[nH]ncc4c3c3c2CCCC3)cc1
*A* inactive

*Q* // outcome(item) with item = O=C(Nc1ccc2c(ccn2Cc2ccccn2)c1)c1ccnnc1
*A* inactive

*Q* I'd appreciate the recorded outcome for COc1cc2nc(Cl)nc(Nc3cccc(C4=Nc5c(N)nc(N)nc5NC(c5ccc6c(c5)OCO6)C4)c3)c2cc1OC (stereo not drawn) from this test.
*A* inactive

*Q* Hi team, can someone confirm the assay call for Cn1cc(-c2nc(N)nnc2-c2c[nH]c3ccc(Br)cc23)c2cc(Br)ccc21 ?
*A* inactive

*Q* I would be grateful if you could indicate the recorded call for CS(=O)(=O)Nc1cc(-c2ccc3ncc(C#N)c(NCc4cccc(F)c4)c3c2)cnc1Cl .
*A* active

*Q* Would you mind telling me which call this test gave COc1ccc(NC(=O)Nc2ccc3c(ccn3C(=O)c3cccc(F)c3)c2)cc1 ?
*A* inactive

*Q* Check the results log: what was the call for C=C1CC[C@@H]2[C@]3(C)COC(c4ccccc4)O[C@@H]3CC[C@@]2(C)[C@@H]1C/C=C1/C(=O)OC[C@H]1O (stereo partly drawn) ?
*A* inactive

*Q* Fill in: this test's call for C=C=COc1cccc(/C(N)=N/C(N)=N/c2nc3ccccc3s2)c1 is ___
*A* inactive

*Q* In this assay, the call recorded for C=C(C)[C@@H]1CC[C@]2(COC)CC[C@]3(C)[C@H](CC[C@@H]4[C@@]5(C)CCCNC(C)(C)[C@@H]5CC[C@]43C)[C@@H]12 was what?
*A* active

*Q* Recorded call for C=CC(=O)N1CCC=C(c2cc3c(N[C@H](C)c4ccccc4)ncnc3[nH]2)C1 ?
*A* inactive

*Q* Name the outcome recorded for Nc1nc(-c2cccc([N+](=O)[O-])c2)c(N=Nc2ccc([N+](=O)[O-])cc2Cl)s1 in the assay.
*A* inactive

*Q* Call for entry NC(N)=Nc1ccc(Oc2cccc(NC(N)=Nc3ccc(I)cc3F)c2)cc1 :
*A* inactive

*Q* What did the test return for CNCc1cccc2c1OCCCCCCC(C)(O)CC(C)(C)S(=O)(=O)c1ccc(cc1)-c1cnc(N)c(n1)C(=O)N2 (stereo not drawn) ?
*A* active

*Q* Outcome? COc1ccc(C(=O)c2c(N)c(C#N)cn2-c2ccccc2OC)cc1
*A* inactive
